SYSTEM TESTED: human serum albumin (Homo sapiens)
Sequence (P02768 25-609): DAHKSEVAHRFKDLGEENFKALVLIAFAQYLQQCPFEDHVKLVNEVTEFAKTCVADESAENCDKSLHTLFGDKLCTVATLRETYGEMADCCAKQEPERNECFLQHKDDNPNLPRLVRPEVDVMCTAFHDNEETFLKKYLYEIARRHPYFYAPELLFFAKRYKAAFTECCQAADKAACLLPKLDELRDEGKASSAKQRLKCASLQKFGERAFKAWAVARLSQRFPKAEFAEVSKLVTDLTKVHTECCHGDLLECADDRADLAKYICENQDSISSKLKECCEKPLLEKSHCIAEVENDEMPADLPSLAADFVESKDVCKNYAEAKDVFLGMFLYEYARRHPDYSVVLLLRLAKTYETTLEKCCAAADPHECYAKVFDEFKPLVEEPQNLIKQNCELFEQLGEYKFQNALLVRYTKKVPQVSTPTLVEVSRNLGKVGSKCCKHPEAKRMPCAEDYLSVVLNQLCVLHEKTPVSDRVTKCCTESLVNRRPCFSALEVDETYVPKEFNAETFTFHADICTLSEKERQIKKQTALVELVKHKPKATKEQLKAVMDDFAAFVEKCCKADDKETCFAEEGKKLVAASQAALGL
EXPERIMENTAL DETAILS: Non-enzymatic glycosylation of human serum albumin, [14C]-glucose incorporation
Type: biochemical
CONDITION CONTEXT: test compound 19.1 mM, 100 mM [14C]-D-glucose, human serum albumin, 37° C., 8 days; control 1.50
ENDPOINT LABEL: % [14C-glucose] Incorporated

{"MOLECULE": "N=C(N)NN [Aminoguanidine]", "SYSTEM TESTED": "human serum albumin (Homo sapiens)", "REPORTED RESULT": "0.96 (P < 0.05 vs. Control) %"}
{"MOLECULE": "N=C(N)NCCC(=O)O [3-Guanidinopropionic acid]", "SYSTEM TESTED": "human serum albumin (Homo sapiens)", "REPORTED RESULT": "1.52%"}
{"MOLECULE": "NNC(=NCC(=O)O)NN [N-(dihydrazinomethylene)-glycine]", "SYSTEM TESTED": "human serum albumin (Homo sapiens)", "REPORTED RESULT": "0.81 (P < 0.05 vs. Control) %"}

Continue with the next molecule.
Q: Quick one: % [14C-glucose] Incorporated for `Cl.N=C(N)NNCC(=O)O` ?
A: 1.29 (P < 0.10 vs. Control) %

---

SYSTEM TESTED: human serum albumin (Homo sapiens)
EXPERIMENTAL DETAILS: Non-enzymatic glycosylation of human serum albumin, [14C]-glucose incorporation
Assay type: biochemical
CONDITION CONTEXT: in vitro, Table 8 assay
ENDPOINT LABEL: non-enzymatic glycosylation of human serum albumin in vitro

{"COMPOUND": "NNC(=NCC(=O)O)NN [N-(dihydrazinomethylene)-glycine]", "REPORTED RESULT": "reduced"}
{"COMPOUND": "Cl.N=C(N)NNCC(=O)O", "REPORTED RESULT": "reduced"}
